tested on: NCI-H226 lung; experiment: NCI-60 one-dose screen, 48 h; conditions: 10 µM unless noted
About 83,000 compounds went through this panel and 20% of them were active in at least one assay; those are over-represented in the sample as a whole. Active and inactive are the calls of the source. Rule for the calls: active = growth percent below 10; inactive = the rest.
Just give me one of these, please: yes (1) = active, no (0) = inactive

molecule | category
COC(=O)C(N)CSC(c1ccccc1)(c1ccccc1)c1ccccc1 (stereo not given) | no (0)
COc1ccc(-c2nc(SCC(=O)Nc3ccc(C(C)=O)cc3)[nH]c(=O)c2C#N)cc1 | no (0)
CN(C)CCCC1(c2ccc(F)cc2)OCc2cc(-c3ccc(C(F)(F)F)nc3)ccc21 (stereo not given) | no (0)
COc1cccc(-c2nn(-c3ccccc3)cc2-c2ccnc(NCCCNS(=O)(=O)c3ccc(C(F)(F)F)cc3)c2)c1 | no (0)
Cc1ccccc1-c1nc(C(Cl)Cl)nc2cc(-c3ccccc3)nn12 | no (0)
Clc1ccc2[nH]cc(-c3nc(-c4c[nH]c5ncccc45)cs3)c2c1 | no (0)

Next, consider the following molecule.
// return assay outcome for C/C(=N\Nc1cc(C)c2ccccc2n1)c1ccccn1
yes (1)

Recorded values, source PubChem BioAssay (NCI).
